I'd appreciate it if you could supply MIC values for the items below.
System: P. aeruginosa
RUN DESCRIPTION: Initial MIC, microbroth dilution (CLSI), avibactam 4 mg/L
Assay type: cell-based
RECORDED CONDITIONS: Pseudomonas aeruginosa, isolate 16 P. aeruginosa Basal MICs; read-out: MIC
Report only the number, with the unit µg/mL understood.

Supply measured MIC of "CC(C)(O/N=C(\C(=O)N[C@@H]1C(=O)N2C(C(=O)[O-])=C(C[n+]3ccccc3)CS[C@H]12)c1csc(N)n1)C(=O)O" in your reply.
1

Supply measured MIC of "CN(C)c1cc(NC(=O)CNC(C)(C)C)c(O)c2c1C[C@H]1C[C@H]3[C@H](N(C)C)C(O)=C(C(N)=O)C(=O)[C@@]3(O)C(O)=C1C2=O" in your reply.
16

Supply measured MIC of "NC[C@H]1O[C@H](O[C@H]2[C@H](O)[C@@H](O[C@H]3O[C@H](CO)[C@@H](O)[C@H](N)[C@H]3O)[C@H](N)C[C@@H]2N)[C@H](N)C[C@@H]1O" in your reply.
0.25

Supply measured MIC of "C[C@H]1COc2c(N3CCN(C)CC3)c(F)cc3c(=O)c(C(=O)O)cn1c23" in your reply.
1

* * *

RUN DESCRIPTION: Penetration to human ELF
Type: in vivo
RECORDED CONDITIONS: epithelial lining fluid (ELF)
REPORTED PROPERTY: Kp

Supply measured Kp of NC(=O)[C@@H]1CC[C@@H]2CN1C(=O)N2OS(=O)(=O)[O-].[Na+] [avibactam] in your reply.
~0.3

* * *

RUN DESCRIPTION: Serum and epithelial lining fluid (ELF) pharmacokinetics of ceftazidime-avibactam human simulated regimen in infected and uninfected mice
RECORDED CONDITIONS: female, ICR, mouse, epithelial lining fluid (ELF) vs serum, ELF point Penetration Ratio, uninfected mice; 22 h; ELF vs serum, third dosing interval
REPORTED PROPERTY: Kp at 22 h
API note: the answer field is a bare number with no unit suffix.

Supply measured Kp at 22 h of "NC(=O)[C@@H]1CC[C@@H]2CN1C(=O)N2OS(=O)(=O)[O-].[Na+]" in your reply.
0.93

* * *

RUN DESCRIPTION: Serum and epithelial lining fluid (ELF) pharmacokinetics of ceftazidime-avibactam human simulated regimen in infected and uninfected mice
RECORDED CONDITIONS: female, ICR, mouse, epithelial lining fluid (ELF) vs serum, ELF point Penetration Ratio, infected mice; 18.5 h; ELF vs serum, third dosing interval
REPORTED PROPERTY: Kp at 18.5 h
API note: the answer field is a bare number with no unit suffix.

Supply measured Kp at 18.5 h of CC(C)(O/N=C(\C(=O)N[C@@H]1C(=O)N2C(C(=O)[O-])=C(C[n+]3ccccc3)CS[C@H]12)c1csc(N)n1)C(=O)O [ceftazidime] in your reply.
0.8

Supply measured Kp at 18.5 h of NC(=O)[C@@H]1CC[C@@H]2CN1C(=O)N2OS(=O)(=O)[O-].[Na+] [avibactam] in your reply.
0.66

* * *

Test system: P. aeruginosa
RUN DESCRIPTION: Initial MIC, microbroth dilution (CLSI), avibactam 4 mg/L
Format: cell-based
RECORDED CONDITIONS: Pseudomonas aeruginosa, isolate 19 P. aeruginosa PER; read-out: MIC
REPORTED PROPERTY: MIC
Reply with a number, then the unit it belongs to.

Supply measured MIC of CC(C)(O/N=C(\C(=O)N[C@@H]1C(=O)N2C(C(=O)[O-])=C(C[n+]3ccccc3)CS[C@H]12)c1csc(N)n1)C(=O)O [ceftazidime] in your reply.
128 µg/mL

Supply measured MIC of CN(C)c1cc(NC(=O)CNC(C)(C)C)c(O)c2c1C[C@H]1C[C@H]3[C@H](N(C)C)C(O)=C(C(N)=O)C(=O)[C@@]3(O)C(O)=C1C2=O [Tigecycline] in your reply.
32 µg/mL

Supply measured MIC of C[C@H]1COc2c(N3CCN(C)CC3)c(F)cc3c(=O)c(C(=O)O)cn1c23 [Levofloxacin] in your reply.
16 µg/mL

Supply measured MIC of NC[C@H]1O[C@H](O[C@H]2[C@H](O)[C@@H](O[C@H]3O[C@H](CO)[C@@H](O)[C@H](N)[C@H]3O)[C@H](N)C[C@@H]2N)[C@H](N)C[C@@H]1O [Tobramycin] in your reply.
1 µg/mL

* * *

RUN DESCRIPTION: Serum and epithelial lining fluid (ELF) pharmacokinetics of ceftazidime-avibactam human simulated regimen in infected and uninfected mice
RECORDED CONDITIONS: female, ICR, mouse, epithelial lining fluid (ELF) vs serum, ELF point Penetration Ratio, uninfected mice; 18.5 h; ELF vs serum, third dosing interval
REPORTED PROPERTY: Kp at 18.5 h
API note: the answer field is a bare number with no unit suffix.

Supply measured Kp at 18.5 h of "NC(=O)[C@@H]1CC[C@@H]2CN1C(=O)N2OS(=O)(=O)[O-].[Na+]" in your reply.
0.74

Supply measured Kp at 18.5 h of "CC(C)(O/N=C(\C(=O)N[C@@H]1C(=O)N2C(C(=O)[O-])=C(C[n+]3ccccc3)CS[C@H]12)c1csc(N)n1)C(=O)O" in your reply.
0.8
